Every entry's value here was drawn from patent US20250163048A1.

In this section we review reported IC50 values for a set of compounds.
System: MTAP-deleted cell line
testSummary: viability assay for the MTAP-deleted cell line
Format: cell-based
appliedConditions: Homo sapiens, HAP1, viability assay

Guide cases for IC50, answers given:
- compound: "C[C@@H]1CC[C@@H](c2ccnn2C)N(C(=O)C(=O)Nc2cnc(N)c3cn[nH]c23)C1 (racemic)"
  testTarget: "MTAP-deleted cell line"
  IC50: "< 100 nM"
- compound: "CO[C@@H]1C[C@@H](c2ccc(F)cc2)N(C(=O)C(=O)Nc2cnc(N)c3cn[nH]c23)C[C@@H]1C (single isomer, unassigned)"
  testTarget: "MTAP-deleted cell line"
  IC50: "< 100 nM"
- compound: "C[C@H]1CC[C@H](c2cccc(F)c2)N(C(=O)C(=O)Nc2cnc(N)c3cn[nH]c23)C1 (racemic)"
  testTarget: "MTAP-deleted cell line"
  IC50: "< 100 nM"
- compound: "C[C@H]1CC[C@H](c2ccc3scnc3c2)N(C(=O)C(=O)Nc2cnc(N)c3[nH]ncc23)C1"
  testTarget: "MTAP-deleted cell line"
  IC50: "< 100 nM"
- compound: "C[C@H]1CC[C@H](c2ccc3sc([C@H](C)CN(C)C)nc3c2)N(C(=O)C(=O)Nc2cncc3c(N)nccc23)C1 (relative stereo)"
  testTarget: "MTAP-deleted cell line"
  IC50: "< 100 nM"
- compound: "C[C@H]1CC[C@H](c2cc(F)c(F)c(F)c2)N(C(=O)C(=O)Nc2cnc(N)c3cn[nH]c23)C1"
  testTarget: "MTAP-deleted cell line"
  IC50: "< 100 nM"

Requested field: IC50. Item: C[C@H]1CC[C@H](c2ccc3ccc(C4CCN(C)CC4)nc3c2)N(C(=O)C(=O)Nc2ccn3ccnc3c2)C1
< 100 nM

// next record CC1OCc2c(NC(=O)C(=O)N3C[C@@H](C)CC[C@@H]3c3ccccc3)cnc(N)c21 (single isomer, unassigned)
> 1000 nM

// next record C[C@@H]1CC[C@@H](c2ccc3cnccc3c2)N(C(=O)C(=O)Nc2cnc(N)c3cn[nH]c23)C1 (racemic)
< 100 nM

// next record COc1cc([C@H]2CC[C@H](C)CN2C(=O)C(=O)Nc2cnc(N)c3cn[nH]c23)ccn1
< 100 nM

// next record C[C@H]1CC[C@H](c2ccc3nn(C)cc3c2)N(C(=O)C(=O)Nc2cnc(N)c3cn[nH]c23)C1
< 100 nM

// next record C[C@H]1CC[C@H](c2ccc3ccccc3c2)N(C(=O)C(=O)Nc2cnc(N)c3cn[nH]c23)C1
< 100 nM

// next record C[C@H]1CC[C@H](c2ccc3sc(C45CCC(CC4)N(C)C5)nc3c2)N(C(=O)C(=O)Nc2cncc3cn[nH]c23)C1
< 100 nM

// next record C[C@H]1CC[C@H](c2ccc(F)c(F)c2)N(C(=O)C(=O)Nc2cnc(N)c3cn[nH]c23)C1
< 100 nM

// next record C[C@H]1CC[C@H](c2ccc3scnc3c2)N(C(=O)C(=O)Nc2cncc3cn[nH]c23)C1
100 to 1000 nM

// next record C[C@H]1CC[C@H](c2cccc(C(F)(F)F)c2)N(C(=O)C(=O)Nc2cnc(N)c3cn[nH]c23)C1
< 100 nM

// next record C[C@H]1CC[C@H](c2ccnc(OC3CC3)c2)N(C(=O)C(=O)Nc2cnc(N)c3cn[nH]c23)C1 (racemic)
< 100 nM

// next record C[C@H]1CC[C@H](c2ccc(OC3CCN(C)CC3)cc2)N(C(=O)C(=O)Nc2cnc(N)c3cn[nH]c23)C1
< 100 nM

// next record Nc1ncc(NC(=O)C(=O)N2CCCCC2c2cccc(N3CCCC3)c2)c2[nH]ncc12 (single isomer, unassigned)
100 to 1000 nM
